Data origin, for the record: PubChem BioAssay AID1918996

The entries below are paired with their reported IC50.
Tested on: 349418-098-R-PDC complex spheroid growth;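 note: spheroids exposed to agents for seven days before luminescence viability read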
PROTOCOL_DETAILS: Anticancer human tumor 349418-098-R-PDC patient-derived lung adenocarcinoma cell line growth inhibition [AhR]
STATED_CONDITIONS: curve of first compound; second compound 0.316 µM
Note: unit nM is implicit; provide only the numeric part.

Check out these entries, answers already filled in.
INSERT INTO assay_data (compound, quantitative_result) VALUES
  ('CC1COCCN1c1cc(C2(S(C)(=N)=O)CC2)nc(-c2ccnc3[nH]ccc23)n1 (stereo not drawn) + CC(CO)NC(=O)c1cc(-c2ccc(Cl)cc2)nn(-c2cnn(C)c2)c1=O', 1710),
  ('CC[C@@]1(O)C(=O)OCc2c1cc1n(c2=O)Cc2cc3c(CN(C)C)c(O)ccc3nc2-1 + CC(CO)NC(=O)c1cc(-c2ccc(Cl)cc2)nn(-c2cnn(C)c2)c1=O', 16.9),
  ('Nc1ncn(C2CC(O)C(CO)S2)c(=O)n1 (stereo not drawn) + Cc1ccccc1N=Nc1ccc(NC(=O)c2ccnn2C)c(C)c1', 80.4),
  ('Nc1ccccc1NC(=O)c1ccc(CNC(=O)OCc2cccnc2)cc1 + CC(CO)NC(=O)c1cc(-c2ccc(Cl)cc2)nn(-c2cnn(C)c2)c1=O', 1050),
  ('NS(=O)(=O)OCC1CC(n2ccc3c(NC4CCc5ccccc54)ncnc32)CC1O (stereo not drawn) + Cc1cncc(-c2nc(NCCc3c[nH]c4ccccc34)c3ncn(C(C)C)c3n2)c1', 161);

Asked: Give the measured IC50 for COc1cc(Nc2ncc3c(n2)-c2ccc(Cl)cc2C(c2c(F)cccc2OC)=NC3)ccc1C(=O)O + Cc1cncc(-c2nc(NCCc3c[nH]c4ccccc34)c3ncn(C(C)C)c3n2)c1
Given back: 242

Asked: Please list IC50 recorded for the compound Nc1ncn(C2CC(O)C(CO)O2)c(=O)n1 (stereo not drawn) + Cc1ccccc1N=Nc1ccc(NC(=O)c2ccnn2C)c(C)c1
Given back: 66.1
